Data provenance is patent US7868135B2.

test system: Staphylococcus aureus (MSSA); details: 24 h
Starred links: 1 amine or outer side, 2 acyl side, 3 side chain; linkers in the order of their positions; H or OH if unused. Positions of bridges follow the written chain, without caps; N, C: chain ends. Non-standard residues stand in square brackets, D forms with d. Residues, ends and D or L forms follow the SMILES beside them. Groups on a side chain read outwards from the residue. ξ: configuration not given here. *: point of attachment. ξAbu(βξ-NH2) = CC(N[*:3])C(N[*:1])C(=O)[*:2]; Phac(3-amino) = O=C(Cc1cccc(N[*:1])c1)[*:2]; X7 = CC(NC(=O)C1CCNCC1)C(N[*:1])C(=O)[*:2]; Pentadecanoyl = CCCCCCCCCCCCCCC(=O)*; ξAsp(βξ-Me) = CC(C(=O)O)C(N)C(=O)O; Myristoyl = CCCCCCCCCCCCCC(=O)*; ξAbu(3ξ-NH2) = CC(N)C(N)C(=O)O; Dab = NCC[C@H](N)C(=O)O; Pip = O=C(O)[CH]1CCCCN1; ξD = NC(CC(=O)O)C(=O)O; ξPip = O=C(O)C1CCCCN1; ξV = CC(C)C(N)C(=O)O; ξP = O=C(O)C1CCCN1; Sar = CNCC(=O)O
PROPERTY_LABEL: MIC (µg/mL)

>>> meas_value("CCCCCCCCCCCNC(=O)NCCCC(=O)NC(CC(=O)O)C(=O)NC1C(=O)N2CCCCC2C(=O)NC(C(C)C(=O)O)C(=O)NC(CC(=O)O)C(=O)NCC(=O)NC(CC(=O)O)C(=O)NCC(=O)NC(C(C)N)C(=O)NC(C(C)C)C(=O)N2CCCC2C(=O)NC1C (centres unmarked)")
4
>>> meas_value("CCCCCCCCCCCCCCC(=O)NC(CC(=O)O)C(=O)NC1C(=O)N2CCCCC2C(=O)NC(C(C)C(=O)O)C(=O)NC(CC(=O)O)C(=O)NCC(=O)NC(CC(=O)O)C(=O)NCC(=O)NC(C(C)NC(=O)CCCNC(=O)[C@@H](N)C(C)C)C(=O)NC(C(C)C)C(=O)N2CCCC2C(=O)NC1C (some centres unmarked)")
4
>>> meas_value("CCCCCCCCCCCCCCC(=O)NC(CC(=O)O)C(=O)NC1C(=O)N2CCCCC2C(=O)NC(C(C)C(=O)O)C(=O)NC(CC(=O)O)C(=O)NCC(=O)NC(CC(=O)O)C(=O)NCC(=O)NC(C(C)NC(=O)C2CCNCC2)C(=O)NC(C(C)C)C(=O)N2CCCC2C(=O)NC1C (stereo not drawn) [Compound 26, C15-Amphomycin-9-Ina] (Pentadecanoyl-D[ξAbu(βξ-NH2)][Pip][ξAsp(βξ-Me)]DGDG[X7]VP; lactam 2-C; configuration not given here)")
4
>>> meas_value("CCCCCCCCCCCCCCC(=O)NC(CC(=O)O)C(=O)NC1C(=O)N2CCCCC2C(=O)NC(C(C)C(=O)O)C(=O)NC(CC(=O)O)C(=O)NCC(=O)NC(CC(=O)O)C(=O)NCC(=O)NC(C(C)NC(=O)CN(C)C(=O)[C@@H](N)CCN)C(=O)NC(C(C)C)C(=O)N2CCCC2C(=O)NC1C (stereo partly drawn) [Compound 145, C15-Amphomycin-9-Sar-gDab] (Pentadecanoyl-[ξD][ξAbu(βξ-NH2)][ξPip][ξAsp(βξ-Me)][ξD]G[ξD]G[ξAbu(βξ-NH2)]([Sar-Dab])[ξV][ξP]; lactam 2-C)")
2
>>> meas_value("CCCCCCCCCCCCCC(=O)Nc1cccc(CC(=O)NC(CC(=O)O)C(=O)NC2C(=O)N3CCCCC3C(=O)NC(C(C)C(=O)O)C(=O)NC(CC(=O)O)C(=O)NCC(=O)NC(CC(=O)O)C(=O)NCC(=O)NC(C(C)N)C(=O)NC(C(C)C)C(=O)N3CCCC3C(=O)NC2C)c1 (stereo not drawn) [Compound 303, C14-(M-Apa)-Amphomycin] (Myristoyl-[Phac(3-amino)]D[ξAbu(βξ-NH2)][Pip][ξAsp(βξ-Me)]DGDG[ξAbu(3ξ-NH2)]VP; lactam 3-C; configuration not given here)")
0.5
>>> meas_value("CCCCCCCCCCCCCCC(=O)NC(CC(=O)O)C(=O)NC1C(=O)N2CCCCC2C(=O)NC(C(C)C(=O)O)C(=O)NC(CC(=O)O)C(=O)NCC(=O)NC(CC(=O)O)C(=O)NCC(=O)NC(C(C)NC(=O)[C@H]2CCCCN2)C(=O)NC(C(C)C)C(=O)N2CCCC2C(=O)NC1C (some centres unmarked)")
1
>>> meas_value("CCCCCCCCCCCCCCC(=O)NC(CC(=O)O)C(=O)NC1C(=O)N2CCCCC2C(=O)NC(C(C)C(=O)O)C(=O)NC(CC(=O)O)C(=O)NCC(=O)NC(CC(=O)O)C(=O)NCC(=O)NC(C(C)NC(=O)CNC(=O)CN)C(=O)NC(C(C)C)C(=O)N2CCCC2C(=O)NC1C (centres unmarked)")
1
